B1: ATL3 (parent)
chain: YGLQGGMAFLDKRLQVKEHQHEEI

- Variants of: B1
- assay.info: protein stability index of a GFP-peptide fusion (GPS, HEK-293T) (PSI 1-6); higher = more stable;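 note: lentivirally expressed fusions sorted by FACS into six bins by GFP to DsRed ratio, PSI derived from sequencing read proportions per bin multiplied by bin number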
- test.conditions: c terminus: a fixed tail appended
Reported values of protein stability index for individual entries
Answer with a number only.

- Y1T: 4.08

Bench note: what protein stability index did K12V show?
2.62

Query: protein stability index; subject: H19V
3.03

Param item = R13F ; retrieve measured protein stability index.
2.73

protein stability index for Y1N ?
4.53

Fill in the blank: the reported protein stability index of K12L is ____.
3.83

What value of measured protein stability index is listed for G5Q ?
2.73

I'd like to know its protein stability index. The variant in question is L3E
2.37

# query: protein stability index of entry K17Y
3.11

I am curious: what protein stability index value has been reported for E23F ?
2.43

Any idea what protein stability index was measured for D11M ?
2.22

Which protein stability index reading was recorded for the variant K17N ?
3.3

Value lookup for protein stability index; key = R13E
1.59

Which protein stability index reading was recorded for the variant Q20F ?
3.31

Find the recorded protein stability index belonging to L3C and report it.
2.03

Need protein stability index, item V16C
2.78

// protein stability index lookup, key: L10Q
1.65

What does the record list as protein stability index for H21K ?
3.21

For K12P , what is its reported protein stability index?
1.88

Fill in: protein stability index of K17P is ___
2.82

Fill blank: measured protein stability index of the variant L14K is ____.
2.1

Please report the recorded protein stability index for V16P .
1.22

Values from the supplement of paper PMC10567573
